Assign Difference % (period of sleep vs. control) to each entry below.
system: hexobarbital oxidase; assay: in vivo hexobarbital oxidase activity: hexobarbital sleeping time in rats (enzyme induction); set-up: species or system male Wistar rats; settings: 40 mg./kg. oral, 24 hours; vs. control group; difference greater than 25% regarded as biologically significant
Numbers only; they are read as %.

Query: Fill in Difference % (period of sleep vs. control) for CN1C(=O)CN(NC(=O)CCl)C(c2ccccc2)c2cc(Cl)ccc21 (stereo not shown) tested with hexobarbital oxidase.
Result: -33

Query: Fill in Difference % (period of sleep vs. control) for O=NN1CC(=O)Nc2ccc([N+](=O)[O-])cc2C1c1ccccc1 (stereo not shown) tested with hexobarbital oxidase.
Result: -51

Query: Fill in Difference % (period of sleep vs. control) for CN1C(=O)CN(N=O)C(c2ccccc2)c2cc(Cl)ccc21 (stereo not shown) tested with hexobarbital oxidase.
Result: -42

Query: Fill in Difference % (period of sleep vs. control) for CN1C(=O)CN(N=Cc2ccccc2)C(c2ccccc2)c2cc(Cl)ccc21 (stereo not shown) tested with hexobarbital oxidase.
Result: -58

Query: Fill in Difference % (period of sleep vs. control) for CC(=O)NN1CC(=O)N(C)c2ccc(Cl)cc2C1c1ccccc1 (stereo not shown) tested with hexobarbital oxidase.
Result: -29

Query: Fill in Difference % (period of sleep vs. control) for CN1C(=O)CN(N=Cc2ccc(O)cc2)C(c2ccccc2)c2cc(Cl)ccc21 (stereo not shown) tested with hexobarbital oxidase.
Result: -41

Query: Fill in Difference % (period of sleep vs. control) for CN1C(=O)CN(N)C(c2ccccc2)c2cc(Cl)ccc21 (stereo not shown) tested with hexobarbital oxidase.
Result: -35
